tested_on: PfHPPD-Evo33 (SEQ ID No 25) (Pseudomonas sp., UniProt P80064, A172V/A53E/D148E/D45N/E105D/E287Q/E300V/E334P/F143Y/G286D/G335W/H150N/H254A/H63N/I158V/I187A/I249V/K92N/L18F/N24G/N280D/S245T/S257K/S301E/T205S/V65I)
Sequence (P80064 1-354 with tags or gaps with the stated changes limits assumed): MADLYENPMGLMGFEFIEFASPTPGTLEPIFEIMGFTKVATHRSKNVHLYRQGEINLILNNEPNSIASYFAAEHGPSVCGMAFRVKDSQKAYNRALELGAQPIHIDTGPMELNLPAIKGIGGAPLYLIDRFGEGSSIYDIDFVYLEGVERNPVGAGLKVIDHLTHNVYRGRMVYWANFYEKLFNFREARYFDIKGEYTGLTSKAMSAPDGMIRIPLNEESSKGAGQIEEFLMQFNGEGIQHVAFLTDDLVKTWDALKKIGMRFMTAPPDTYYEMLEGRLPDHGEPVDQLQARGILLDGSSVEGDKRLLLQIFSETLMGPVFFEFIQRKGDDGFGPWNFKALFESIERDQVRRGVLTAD
method: biochemical
parameter_measured: IC50

{"smiles_text": "CSc1c(C(F)(F)F)ccc(C(=O)Nc2nnnn2C)c1Cl", "test_value": "0.251 µM"}

---

tested_on: PfHPPD336W (SEQ ID No 4) (Pseudomonas sp., UniProt P80064, G335W)
Sequence (P80064 1-354 with tags or gaps with the stated changes): as the sequence (P80064 1-354 with tags or gaps with the stated changes limits assumed) above, with P335E counted along it
method: biochemical
parameter_measured: IC50 (nM)

{"smiles_text": "CSc1c(C(F)(F)F)ccc(C(=O)Nc2nnnn2C)c1Cl", "parameter_measured": "IC50", "test_value": 200}

---

tested_on: PfHPPD-Evo40 (SEQ ID No 27) (Pseudomonas sp., UniProt P80064, A172V/A339E/A53E/D148E/D45N/E105D/E287Q/E300V/E334P/F143Y/G286D/G335S/H150N/H254A/H63N/I158V/I187A/I249V/K92N/L18F/N24G/N280D/S245T/S257K/S301E/T205S/V65I)
method: biochemical
parameter_measured: IC50 (nM)

{"smiles_text": "CSc1c(C(F)(F)F)ccc(C(=O)Nc2nnnn2C)c1Cl", "test_value": 251}

---

tested_on: FMP37 (SEQ ID No 9) (Blepharisma japonicum)
Sequence (A8R3H6 1-382): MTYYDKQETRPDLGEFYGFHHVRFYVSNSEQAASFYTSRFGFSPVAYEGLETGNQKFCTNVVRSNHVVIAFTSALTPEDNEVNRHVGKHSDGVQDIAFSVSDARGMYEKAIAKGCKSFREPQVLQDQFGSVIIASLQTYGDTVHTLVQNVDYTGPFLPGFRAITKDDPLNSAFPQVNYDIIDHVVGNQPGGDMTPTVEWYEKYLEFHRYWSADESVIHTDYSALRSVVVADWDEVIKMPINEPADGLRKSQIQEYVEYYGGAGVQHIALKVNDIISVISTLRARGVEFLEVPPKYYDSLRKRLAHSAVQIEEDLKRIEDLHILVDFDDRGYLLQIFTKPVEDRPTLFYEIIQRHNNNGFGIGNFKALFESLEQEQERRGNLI
method: HPPD activity in presence of inhibitor, HGD assay
Protocol: With the HGD assay HPPD activity was measured at room temperature by adding appropriate amounts of HPPD to a solution of 200 mM Tris-HCl pH 7.6, 10 mM ascorbate, 20 μM FeSO4, 650 units of catalase, 8 μg HGA dioxygenase (HGA: homogentisate) and 600 μM HPP in a total volume of 1 ml. Initial reaction rates were determined from the increase in absorbance at 318 nm due to the formation of maleylacetoacetate (ε318=11,900 M-1 cm-1). […]

{"smiles_text": "CSc1c(C(F)(F)F)ccc(C(=O)Nc2nnnn2C)c1Cl", "tested_on": "FMP37 (SEQ ID No 9) (Blepharisma japonicum)", "unit_abbrev": "µM", "IC50": 5.01}
